test: Intra-pulmonary steady-state concentrations (plasma, ELF, alveolar cells) after multiple IV doses in healthy adult subjects; type: in vivo, human; details: human, in vivo, Plasma concentration (mean ± SD)
quantity name: concentration at 8 h (ng/mL)
Write down the numeric answer in ng/mL and omit the unit.

Query :: Given the molecule CN(C)c1cc(CNCC(C)(C)C)c(O)c2c1C[C@H]1C[C@H]3C(N(C)C)C(O)=C(C(N)=O)C(=O)[C@@]3(O)C(O)=C1C2=O (stereo partly shown) , what is its reported concentration at 8 h?
Result :: 560

---

Assay: Intra-pulmonary steady-state concentrations (plasma, ELF, alveolar cells) after multiple IV doses in healthy adult subjects
Type: in vivo, human
Conditions: human, in vivo, Ratio of Omadacycline Concentrations in Alveolar Cells to Plasma (Mean, SD)
Procedure: The remaining 20 subjects received tigecycline as 1 intravenous dose of 100 mg administered as a 30 minute infusion at t=0, followed by 6 intravenous doses of 50 mg administered as 30 minute infusions at t=12, 24, 36, 48, 60, and 72 hours. A study completion visit was conducted on the day following the final test article dose. […]
quantity name: Kp at 12 h
Write the value as a bare number.

Query :: Given the molecule CN(C)c1cc(CNCC(C)(C)C)c(O)c2c1C[C@H]1C[C@H]3C(N(C)C)C(O)=C(C(N)=O)C(=O)[C@@]3(O)C(O)=C1C2=O (stereo partly shown) , what is its reported Kp at 12 h?
Result :: 29
